Test system: HIV-1NL4-3
Test: P4-MAGI assay
Type: cell-based
Conditions: Human immunodeficiency virus 1, 24 h, P4 cells, 24 hour incubation, β-galactosidase expression; read-out: P4-MAGI IC50
The threshold is 30 nM. Values of IC50 beneath it are tagged criterion met; values meeting or exceeding it are tagged criterion not met.

Inquiry: Item C=C(C)[C@@H]1CC[C@]2(C(=O)NCc3ccc(C(=O)NCc4ccc(C(=O)OC)o4)o3)CC[C@]3(C)C(CCC4[C@@]5(C)CC[C@H](O)C(C)(C)C5CC[C@]43C)C12 (some centres unmarked) : IC50 beneath 30 nM, strictly?
Reply text: criterion not met

Inquiry: Item C=C(C)[C@@H]1CC[C@]2(C(=O)NCc3cc(C(=O)NCc4cccc(C(=O)O)c4)ccc3F)CC[C@]3(C)C(CCC4[C@@]5(C)CC[C@H](O)C(C)(C)C5CC[C@]43C)C12 (some centres unmarked) : IC50 beneath 30 nM, strictly?
Reply text: criterion met

Inquiry: Item C=C(C)[C@@H]1CC[C@]2(C(=O)NCCc3cccc(-c4nnc(-c5ccc(C(=O)O)cn5)[nH]4)c3)CC[C@]3(C)C(CCC4[C@@]5(C)CC[C@H](O)C(C)(C)C5CC[C@]43C)C12 (some centres unmarked) : IC50 beneath 30 nM, strictly?
Reply text: criterion not met

Inquiry: Item C=C(C)[C@@H]1CC[C@]2(C(=O)NCCc3cccc(C(=O)NCC(=O)O)c3)CC[C@]3(C)C(CCC4[C@@]5(C)CC[C@H](O)C(C)(C)C5CC[C@]43C)C12 (some centres unmarked) : IC50 beneath 30 nM, strictly?
Reply text: criterion not met

Inquiry: Item C=C(C)[C@@H]1CC[C@]2(C(=O)NCCc3cccc(C(=O)NCc4ccc(C(=O)NCCN5CCOCC5)cn4)c3)CC[C@]3(C)C(CCC4[C@@]5(C)CC[C@H](O)C(C)(C)C5CC[C@]43C)C12 (some centres unmarked) : IC50 beneath 30 nM, strictly?
Reply text: criterion met
